Test system: HEK-293 cell line
Experiment: MTT cytotoxicity assay, HEK-293
Type: cell-based
Conditions: HEK-293, MTT, 48 h, 0.1 to 100 μM
quantity: IC50 (µM)

[
  {
    "chemical structure": "Clc1nc(N2CCC(N3CCCCC3)CC2)c2ncn(Cc3c(Cl)cccc3Cl)c2n1",
    "quantity": "IC50",
    "endpoint result": 54.3
  }
]

---

Known Ki of a selection of compounds
Biological target: human histamine H3R (Homo sapiens)
Construct: expressed in transfected cells; host or cells: HEK-293 cells, stably expressing; membrane preparations
Sequence (Q9Y5N1 whole entry): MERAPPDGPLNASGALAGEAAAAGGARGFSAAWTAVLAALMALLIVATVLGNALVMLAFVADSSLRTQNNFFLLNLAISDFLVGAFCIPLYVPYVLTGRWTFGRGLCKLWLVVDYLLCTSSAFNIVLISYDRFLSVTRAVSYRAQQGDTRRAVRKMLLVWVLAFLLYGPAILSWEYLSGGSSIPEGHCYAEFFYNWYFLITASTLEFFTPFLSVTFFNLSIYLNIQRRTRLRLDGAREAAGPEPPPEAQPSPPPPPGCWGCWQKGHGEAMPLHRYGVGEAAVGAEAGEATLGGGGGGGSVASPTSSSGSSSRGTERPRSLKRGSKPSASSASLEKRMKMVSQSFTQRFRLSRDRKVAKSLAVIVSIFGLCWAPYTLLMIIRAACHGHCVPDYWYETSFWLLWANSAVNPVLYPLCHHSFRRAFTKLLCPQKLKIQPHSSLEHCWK
Experiment: Human histamine H3 radioligand displacement ([3H]Nα-methylhistamine)
Type: binding
Settings: [3H]Nα-methylhistamine 2 nM, HEK-293 membranes stably expressing human H3R; mean [95% CI], at least three experiments in duplicate; read-out: Ki (nM) [95% CI nM]

[
  {
    "chemical structure": "N#Cc1ccc(Cn2cnc3c(N4CCC(N5CCCCC5)CC4)ncnc32)cc1",
    "Ki (nM)": 28.8
  },
  {
    "chemical structure": "N#Cc1ccc(Cn2cnc3c(N4CCC(N5CCCCC5)CC4)nc(Cl)nc32)cc1",
    "Ki (nM)": 77.8
  },
  {
    "chemical structure": "Fc1ccc(Cn2cnc3c(N4CCC(N5CCCCC5)CC4)nc(Cl)nc32)cc1",
    "Ki (nM)": 94.6
  },
  {
    "chemical structure": "Clc1cccc(Cl)c1Cn1cnc2c(N3CCC(N4CCCCC4)CC3)ncnc21",
    "Ki (nM)": 2.91
  },
  {
    "chemical structure": "Clc1nc(N2CCC(N3CCCCC3)CC2)c2ncn(Cc3c(Cl)cccc3Cl)c2n1",
    "Ki (nM)": 5.51
  },
  {
    "chemical structure": "Fc1ccc(Cn2cnc3c(N4CCC(N5CCCCC5)CC4)ncnc32)cc1",
    "Ki (nM)": 105
  },
  {
    "chemical structure": "Clc1ccc(Cn2cnc3c(N4CCC(N5CCCCC5)CC4)ncnc32)cc1",
    "Ki (nM)": 39.4
  },
  {
    "chemical structure": "Clc1ccc(Cn2cnc3c(N4CCC(N5CCCCC5)CC4)nc(Cl)nc32)cc1",
    "Ki (nM)": 44.6
  }
]

Cited source: paper PMC9145483
